measured-on: Human immunodeficiency virus type 1 integrase (Human immunodeficiency virus 1, UniProt Q7ZJM1, G140S)
Sequence (Q7ZJM1 entry or part of it G140S): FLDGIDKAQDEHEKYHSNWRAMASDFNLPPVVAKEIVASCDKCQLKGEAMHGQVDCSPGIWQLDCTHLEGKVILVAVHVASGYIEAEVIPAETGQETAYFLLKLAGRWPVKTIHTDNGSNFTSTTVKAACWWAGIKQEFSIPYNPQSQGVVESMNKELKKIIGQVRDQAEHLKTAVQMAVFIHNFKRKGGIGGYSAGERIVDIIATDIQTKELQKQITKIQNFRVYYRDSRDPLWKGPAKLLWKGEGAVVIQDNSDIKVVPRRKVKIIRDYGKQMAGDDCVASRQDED
assay-method-text: Inhibition of HIV-1 integrase G140S mutant strand transfer activity preincubated for 30 mins followed by addition of FITC-labelled dsDNA for 1 hr by microplate reader analysis
pIC50: −log10 of the molar value.
We use 5 as the dividing line for pIC50: on or above the line is true, below is false.

Could you please find out whether O=[N+]([O-])CC1c2cc([N+](=O)[O-])ccc2C=C(c2ccccc2)N1c1ccc(Cl)cc1 (centres undefined) has pIC50 that meets 5 or exceeds it?
true

Could you please find out whether COc1ccc(C2=Cc3ccc(F)cc3C(CC(=O)C(C)O)N2c2ccc([N+](=O)[O-])cc2)cc1 (centres undefined) has pIC50 that meets 5 or exceeds it?
true

Could you please find out whether COc1ccc(C2=Cc3ccc(F)cc3C(CC(=O)C(C)O)N2c2ccc(O)cc2)cc1 (centres undefined) has pIC50 that meets 5 or exceeds it?
false

Could you please find out whether COc1ccc(C2=Cc3ccc([N+](=O)[O-])cc3C(CC(C)=O)N2c2ccc(F)cc2)cc1 (centres undefined) has pIC50 that meets 5 or exceeds it?
true

Could you please find out whether COc1ccc(C2=Cc3ccc(F)cc3C(CC(C)=O)N2c2ccc(C#N)cc2)cc1 (centres undefined) has pIC50 that meets 5 or exceeds it?
false

Could you please find out whether COc1ccc(C2=Cc3ccc(F)cc3C(CC(=O)CO)N2c2ccc([N+](=O)[O-])cc2)cc1 (centres undefined) has pIC50 that meets 5 or exceeds it?
false

Could you please find out whether COc1ccc(C2=Cc3ccc(F)cc3C(C[N+](=O)[O-])N2c2ccc(Cl)cc2)cc1 (centres undefined) has pIC50 that meets 5 or exceeds it?
true

Could you please find out whether COc1ccc(C2=Cc3ccc(F)cc3C(CC(=O)CO)N2c2ccc(C)cc2)cc1 (centres undefined) has pIC50 that meets 5 or exceeds it?
false

Could you please find out whether COc1ccc(C2=Cc3ccc(F)cc3C(CC(=O)CO)N2c2ccc(C#N)cc2)cc1 (centres undefined) has pIC50 that meets 5 or exceeds it?
true

Could you please find out whether COc1ccc(C2=Cc3ccc(F)cc3C(CC(C)=O)N2c2ccc(O)cc2)cc1 (centres undefined) has pIC50 that meets 5 or exceeds it?
false

Could you please find out whether COc1ccc(C2=Cc3ccc(F)cc3C(CC(=O)C(C)O)N2c2ccc(C#N)cc2)cc1 (centres undefined) has pIC50 that meets 5 or exceeds it?
false

Could you please find out whether COc1ccc(C2=Cc3ccc(F)cc3C(CC(=O)CO)N2c2ccc(Cl)cc2)cc1 (centres undefined) has pIC50 that meets 5 or exceeds it?
false

Could you please find out whether COc1ccc(C2=Cc3ccc(F)cc3C(CC(=O)CO)N2c2ccc(O)cc2)cc1 (centres undefined) has pIC50 that meets 5 or exceeds it?
false

Could you please find out whether COc1ccc(C2=Cc3ccc([N+](=O)[O-])cc3C(CC(C)=O)N2c2ccc(C)cc2)cc1 (centres undefined) has pIC50 that meets 5 or exceeds it?
true

Could you please find out whether COc1ccc(C2=Cc3ccc([N+](=O)[O-])cc3C(CC(C)=O)N2c2ccc(C#N)cc2)cc1 (centres undefined) has pIC50 that meets 5 or exceeds it?
true

Values were extracted from ChEMBL document CHEMBL3739256.
